The origin of these recorded values is PubChem BioAssay (NCI).

TGI listing for selected molecules.
# Tested on: KM12 colon
# experiment-summary: NCI tumour cell line growth inhibition, 48 h

[
  {
    "molecule": "CC(=O)OCC1OC(n2cnc3c(I)nc(I)nc32)C(OC(C)=O)C1OC(C)=O (centres undefined)",
    "limit-sign": "=",
    "TGI [µM]": 15.6
  },
  {
    "molecule": "Cc1c(O)c(OC2OC(CO)C(O)C(O)C2O)cc2c1CC[C@@H]1C2(C)C(=O)C[C@]2(C)[C@@H]([C@@](C)(O)C(O)CCC(C)(C)O)[C@H](O)C[C@@]12C (some centres undefined)",
    "limit-sign": ">",
    "TGI [µM]": 100
  },
  {
    "molecule": "COc1ccc([N+](=O)[O-])cc1[I+]c1cc([N+](=O)[O-])ccc1OC",
    "limit-sign": "=",
    "TGI [µM]": 94.7
  },
  {
    "molecule": "c1ccc2c(-c3ccnc(-c4c[nH]c5ccccc45)n3)c[nH]c2c1",
    "limit-sign": "=",
    "TGI [µM]": 23.9
  },
  {
    "molecule": "Cn1cc(-c2nonc2-c2cn(C)c3ccc(Br)cc23)c2ccccc21",
    "limit-sign": ">",
    "TGI [µM]": 100
  },
  {
    "molecule": "CCN1CCC(O)(c2ccccc2)C(C(=O)c2ccccc2)C1 (centres undefined)",
    "limit-sign": ">",
    "TGI [µM]": 100
  },
  {
    "molecule": "Cc1cc2c(cc1-c1cc3c(cc1C)C(C(C)C)=C(O)C(=O)/C3=C\\Nc1cccc3c(N)cccc13)/C(=C/Nc1cccc3c(N)cccc13)C(=O)C(O)=C2C(C)C",
    "limit-sign": ">",
    "TGI [µM]": 100
  },
  {
    "molecule": "Cc1ccc2c(c1)C(=O)c1ccc(C)nc1C2=O",
    "limit-sign": ">",
    "TGI [µM]": 100
  },
  {
    "molecule": "Nc1nccc(C#Cc2cncnc2Nc2ccc(OCc3cccc(F)c3)c(Cl)c2)n1",
    "limit-sign": "=",
    "TGI [µM]": 8.2
  }
]

* * *

TGI listing for selected compounds.
# Tested on: UO-31 renal
# experiment-summary: NCI tumour cell line growth inhibition, 48 h
measure-name: TGI

[
  {
    "compound": "CCOc1ccc(NC(=O)/C(=C/c2ccccc2)C(C)=O)cc1",
    "result": "21.6 µM"
  },
  {
    "compound": "COC(=O)CC(CC(=O)C(=O)OC)C(=O)OC (stereo not drawn)",
    "result": "> 100 µM"
  },
  {
    "compound": "N#CCCN(CCC#N)c1ccc(/C=C2\\N=C(c3ccccc3)N(NC(=O)c3ccncc3)C2=O)cc1",
    "result": "> 100 µM"
  }
]

* * *

# Tested on: M14 melanoma
# experiment-summary: NCI tumour cell line growth inhibition, 48 h

[
  {
    "molecule": "CC1(C)OCC(C2OC(On3nnc4ccc(Cl)cc43)C3OC(C)(C)OC23)O1 (stereo not given)",
    "TGI": "> 100 µM"
  },
  {
    "molecule": "N/C(=N\\N=C=C1C(=O)Nc2ccc(F)cc21)NO",
    "TGI": "> 100 µM"
  },
  {
    "molecule": "Oc1ccc(-c2nc(-c3ccc(F)cc3)c(-c3ccncc3)[nH]2)cc1",
    "TGI": "20.3 µM"
  },
  {
    "molecule": "COc1ccc(C2=NN(c3ccc(S(N)(=O)=O)cc3)C(c3ccc(Cl)cc3)C2)c(O)c1 (stereo not given)",
    "TGI": "25.2 µM"
  },
  {
    "molecule": "Fc1cccc(C=NC23CC4CC(CC(C4)C2)C3)c1",
    "TGI": "> 100 µM"
  }
]
